target: NLRP3 (Homo sapiens, UniProt Q96P20); construct: Seed THP-1 cells (25,000 cells/well) containing 1.0 μg/ml LPS in 40 μl of RPMI medium; experiment: THP-1 Cells Pyroptosis Assay; details: THP-1 cells with 1.0 μg/ml LPS; compound 3 hours; nigericin 5 μM 1 hr; resazurin readout
Sequence (Q96P20 whole entry): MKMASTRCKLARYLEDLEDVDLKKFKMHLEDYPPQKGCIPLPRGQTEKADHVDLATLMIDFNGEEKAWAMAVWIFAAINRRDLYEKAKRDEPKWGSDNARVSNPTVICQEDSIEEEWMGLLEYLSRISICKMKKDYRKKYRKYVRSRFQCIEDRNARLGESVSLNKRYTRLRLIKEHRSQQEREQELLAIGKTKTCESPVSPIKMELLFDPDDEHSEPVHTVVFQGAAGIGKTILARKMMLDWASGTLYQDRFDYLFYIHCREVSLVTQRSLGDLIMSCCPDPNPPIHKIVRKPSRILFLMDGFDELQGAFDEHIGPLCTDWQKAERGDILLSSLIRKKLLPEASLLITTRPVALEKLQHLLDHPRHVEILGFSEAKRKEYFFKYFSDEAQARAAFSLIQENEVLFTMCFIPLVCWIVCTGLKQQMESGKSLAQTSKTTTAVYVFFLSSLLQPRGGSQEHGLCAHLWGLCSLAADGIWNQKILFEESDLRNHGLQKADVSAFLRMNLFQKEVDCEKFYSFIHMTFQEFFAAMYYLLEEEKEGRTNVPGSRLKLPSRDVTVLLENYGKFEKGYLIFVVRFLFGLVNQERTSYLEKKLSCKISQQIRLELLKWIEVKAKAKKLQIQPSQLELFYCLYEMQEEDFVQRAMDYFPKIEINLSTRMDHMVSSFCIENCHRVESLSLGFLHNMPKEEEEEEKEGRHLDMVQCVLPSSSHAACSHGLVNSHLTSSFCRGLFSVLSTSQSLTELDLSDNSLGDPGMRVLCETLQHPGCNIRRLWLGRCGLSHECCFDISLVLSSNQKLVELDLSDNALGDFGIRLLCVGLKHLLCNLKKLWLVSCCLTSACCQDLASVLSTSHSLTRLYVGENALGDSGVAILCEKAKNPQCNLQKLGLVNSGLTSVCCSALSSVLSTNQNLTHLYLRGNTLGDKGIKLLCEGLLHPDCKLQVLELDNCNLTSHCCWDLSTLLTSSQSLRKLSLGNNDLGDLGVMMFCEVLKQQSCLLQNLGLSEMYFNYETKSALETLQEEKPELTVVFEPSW
Counter-ions that a name gives are not always drawn.
PROPERTY_MEASURED: IC50 (nM)
Number only, in nM; omit the unit.

Reference set, count: 2
[ask] # lookup: IC50 of CCN1CCCC[C@@H](Nc2nc3nc(-c4c(C)cc(C(F)(F)F)cc4O)ccc3o2)C1
[reply] 4.9

[ask] # lookup: IC50 of CCN1CCCC(Nc2nc3nc(-c4c(O)cc(Cl)cc4COC)ccc3o2)C1 (stereo not shown)
[reply] 1.7

***
[ask] # lookup: IC50 of CCN1CCC[C@@H](Nc2nc3nc(-c4c(C)cc(OC(F)(F)F)cc4O)ccc3o2)C1
[reply] 4.8

[ask] # lookup: IC50 of Cc1cc(Cl)cc(O)c1-c1ccc2oc(N[C@@H]3CCCN(C4COC4)C3)nc2n1
[reply] 57.5

[ask] # lookup: IC50 of Cc1cc(Cl)cc(O)c1-c1ccc2oc(N[C@@H]3CCC[C@H]3N(C)C)nc2n1
[reply] 6.6

[ask] # lookup: IC50 of CCN1CCC[C@@H](Nc2nc3ccc(-c4c(C)cc(Cl)cc4O)nc3[nH]2)C1
[reply] 1

[ask] # lookup: IC50 of CCN1CCCC(Nc2nc3nc(-c4c(C)cc(C(F)(F)F)cc4O)ccc3o2)C1 (racemic)
[reply] 1.9

[ask] # lookup: IC50 of Cc1cc(Cl)cc(O)c1-c1ccc2oc(N[C@@H]3CCCN(C[C@@H]4CC[C@H]4O)C3)nc2n1 (racemic) [Example 118B]
[reply] 30.6

[ask] # lookup: IC50 of Cc1cc(Cl)cc(O)c1-c1ccc2oc(N[C@@H]3CCCN(CC(C)O)C3)nc2n1 (stereo partly shown)
[reply] 93.9

[ask] # lookup: IC50 of Cc1cc(Cl)cc(O)c1-c1ccc2oc(N[C@@H]3CCCN(C4CCC4)C3)nc2n1
[reply] 1.2

[ask] # lookup: IC50 of CN1CCC[C@@H](Nc2nc3nc(-c4c(O)cc(Cl)cc4CO)ccc3o2)C1
[reply] 11.9

[ask] # lookup: IC50 of Cc1cc(Cl)cc(O)c1-c1ccc2oc([C@@H]3CCC(=O)NC3)nc2n1 (single isomer, unassigned) [Example 73B]
[reply] 78.7

[ask] # lookup: IC50 of Cc1cc(C#N)cc(O)c1-c1ccc2oc(N3CCC4CCN(C)CC43)nc2n1 (single isomer, unassigned) [Example 27A]
[reply] 578

[ask] # lookup: IC50 of Cc1cc(C(F)(F)F)cc(O)c1-c1ccc2oc(NCC34CC(CN3)C4)nc2n1 [Example 43, dihydrochloride]
[reply] 30.5

[ask] # lookup: IC50 of CCN1CCC(O)C(Nc2nc3nc(-c4c(C)cc(Cl)cc4O)ccc3o2)C1 (stereo not shown)
[reply] 53.8

[ask] # lookup: IC50 of CCN1CCC[C@@H](Nc2nc3nc(-c4c(C)cccc4O)ccc3o2)C1
[reply] 3

====

target: NLRP3 (Homo sapiens, UniProt Q96P20); construct: Seed THP-1 cells (25,000 cells/well) containing 1.0 μg/ml LPS in 40 μl of RPMI medium; assay: THP-1 Cells Pyroptosis Assay; conditions: THP-1 cells with 1.0 μg/ml LPS; compound 3 hours; nigericin 5 μM 1 hr; resazurin readout
PROPERTY_MEASURED: pIC50
pIC50 here is simply -log10 of the concentration when that concentration is written in mol/L.

[ask] # lookup: pIC50 of Cc1cc(Cl)cc(O)c1-c1ccc2oc(NCC3CC(O)C3)nc2n1 (stereo not shown)
[reply] 7.57

***
[ask] # lookup: pIC50 of CCN1C[C@@H](O)C[C@@H](Nc2nc3nc(-c4c(C)cc(C)cc4O)ccc3o2)C1
[reply] 8.42

[ask] # lookup: pIC50 of CCN1CCC[C@@H](Nc2nc3nc(-c4c(C)cc(C(F)(F)F)cc4O)cc(N(C)C)c3o2)C1
[reply] 8.16

[ask] # lookup: pIC50 of Cc1cc(C(F)(F)F)cc(O)c1-c1ccc2oc(N3CCCC(CO)C3)nc2n1 (stereo not shown)
[reply] 6.87

====

biological target: NLRP3 (Homo sapiens, UniProt Q96P20); construct: Seed THP-1 cells (25,000 cells/well) containing 1.0 μg/ml LPS in 40 μl of RPMI medium; test: THP-1 Cells Pyroptosis Assay; conditions: THP-1 cells with 1.0 μg/ml LPS; compound 3 hours; nigericin 5 μM 1 hr; resazurin readout
pIC50: recorded values
pIC50 here is simply -log10 of the concentration when that concentration is written in mol/L.

[ask] State its pIC50 on NLRP3 (Homo sapiens, UniProt Q96P20): CCN1CCCC(c2nc3nc(-c4c(C)cc(C(F)(F)F)cc4O)ccc3o2)C1 (stereo not shown)
[reply] 6.63

[ask] State its pIC50 on NLRP3 (Homo sapiens, UniProt Q96P20): Cc1cc(Cl)cc(O)c1-c1ccc2oc(N[C@@H]3C[C@H](O)CN(C)C3)nc2n1
[reply] 8.80

[ask] State its pIC50 on NLRP3 (Homo sapiens, UniProt Q96P20): Cc1cc(C(F)(F)F)cc(O)c1-c1ccc2[nH]c(C3CCCN3)nc2n1 (racemic)
[reply] 6.74

[ask] State its pIC50 on NLRP3 (Homo sapiens, UniProt Q96P20): Cc1cc(C(F)(F)F)cc(O)c1-c1ccc2oc(N3CC(O)C3)nc2n1
[reply] 6.67

[ask] State its pIC50 on NLRP3 (Homo sapiens, UniProt Q96P20): Cc1cc(C(F)(F)F)cc(O)c1-c1ccc2oc(N3CCOCC3CN(C)C)nc2n1 (racemic) [Example 2]
[reply] 7.76

***
[ask] State its pIC50 on NLRP3 (Homo sapiens, UniProt Q96P20): Cc1cc(C(F)(F)F)cc(O)c1-c1ccc2oc(N3CCOCC3CN(C)C)nc2n1 (single isomer, unassigned) [Example 2B]
[reply] 7.77

[ask] State its pIC50 on NLRP3 (Homo sapiens, UniProt Q96P20): Cc1cc(Cl)cc(O)c1-c1ccc2oc(N[C@@H]3CCCN(CCCO)C3)nc2n1
[reply] 7.95

[ask] State its pIC50 on NLRP3 (Homo sapiens, UniProt Q96P20): CCN1CCC12CCN(c1nc3nc(-c4c(C)cc(C(F)(F)F)cc4O)ccc3o1)CC2
[reply] 7.02

====

target: NLRP3 (Homo sapiens, UniProt Q96P20); construct: Seed THP-1 cells (25,000 cells/well) containing 1.0 μg/ml LPS in 40 μl of RPMI medium; test: THP-1 Cells Pyroptosis Assay; conditions: THP-1 cells with 1.0 μg/ml LPS; compound 3 hours; nigericin 5 μM 1 hr; resazurin readout
Each entry belongs to exactly one class, chosen by where its IC50 falls: low = under 5 nM, moderate = from 5 nM up to 30 nM, high = 30 nM and over

[ask] Lab log: CCN1CCC[C@@H](Nc2nc3nc(-c4c(C)cc(C(F)(F)F)cc4O)ccc3o2)C1 — assign IC50 category
[reply] low

[ask] Lab log: CCN1CCC[C@@H](Nc2nc3nc(-c4ccc5c(c4O)CCO5)c(C)cc3o2)C1 — assign IC50 category
[reply] moderate

[ask] Lab log: CN1CCCC(Nc2nc3nc(-c4c(O)cc(C(F)(F)F)cc4C(F)F)ccc3o2)C1 (stereo not drawn) — assign IC50 category
[reply] low

[ask] Lab log: Cc1cc(C2CC2)cc(O)c1-c1ccc2oc(N[C@@H]3CCCN(C)C3)nc2n1 — assign IC50 category
[reply] high

[ask] Lab log: Cc1cc(C#N)cc(O)c1-c1ccc2oc(N3CCCC4CCN(C)CC43)nc2n1 (stereo not drawn) — assign IC50 category
[reply] high

[ask] Lab log: Cc1cc(C(F)(F)F)cc(O)c1-c1ccc2oc(N3CC[C@@H]4CCN(C)C[C@@H]43)nc2n1 (single isomer, unassigned) [Example 37A] — assign IC50 category
[reply] high

[ask] Lab log: COCc1cc(Cl)cc(O)c1-c1ccc2oc(N[C@@H]3C[C@H](O)CN(C)C3)nc2n1 — assign IC50 category
[reply] moderate

====

pIC50: recorded values
target: NLRP3 (Homo sapiens); construct: Seed THP-1 cells (25,000 cells/well) containing 1.0 μg/ml LPS in 40 μl of RPMI medium; assay: THP-1 Cells Pyroptosis Assay; conditions: THP-1 cells with 1.0 μg/ml LPS; compound 3 hours; nigericin 5 μM 1 hr; resazurin readout
pIC50 here is simply -log10 of the concentration when that concentration is written in mol/L.

[ask] # lookup: pIC50 of CCN1CCC[C@@H](Nc2nc3nc(-c4c(O)cc(C#N)cc4Cl)ccc3o2)C1
[reply] 8.06

***
[ask] # lookup: pIC50 of Cc1cc(C#N)cc(O)c1-c1ccc2oc(N[C@@H]3CCCN(C)C3)nc2n1
[reply] 8.55

[ask] # lookup: pIC50 of Cc1cc(Cl)cc(O)c1-c1ccc2oc([C@H]3CCC(=O)NC3)nc2n1 (single isomer, unassigned) [Example 73A]
[reply] 7.73

[ask] # lookup: pIC50 of CCN1CCC[C@@H](Nc2nc3nc(-c4c(C)cc(Cl)c(F)c4O)ccc3o2)C1
[reply] 9.22

[ask] # lookup: pIC50 of CCN1CCC[C@@H](Nc2nc3nc(-c4c(O)cc(C(F)(F)F)cc4F)ccc3o2)C1
[reply] 8.59

[ask] # lookup: pIC50 of Cc1cc(C(F)(F)F)cc(O)c1-c1ccc2oc(NCC3CCN3C)nc2n1 (stereo not drawn)
[reply] 6.83

[ask] # lookup: pIC50 of CCN1CCC(Nc2nc3nc(-c4c(C)cc(C(F)(F)F)cc4O)ccc3o2)C1 (stereo not drawn)
[reply] 8.02

[ask] # lookup: pIC50 of Cc1cc(C#N)cc(O)c1-c1ccc2oc(N[C@H]3CCCN4CCC[C@@H]34)nc2n1 (single isomer, unassigned) [Example 139A]
[reply] 8.43

Data credit: patent US20240279237A1
